Target: human full-length CCK-2 receptor (Homo sapiens, UniProt P32239)
Construct: stably transfected to over-express the human full-length CCK-2 receptor (A431-CCK-2R); expressed in transfected cells
Sequence (P32239 whole entry): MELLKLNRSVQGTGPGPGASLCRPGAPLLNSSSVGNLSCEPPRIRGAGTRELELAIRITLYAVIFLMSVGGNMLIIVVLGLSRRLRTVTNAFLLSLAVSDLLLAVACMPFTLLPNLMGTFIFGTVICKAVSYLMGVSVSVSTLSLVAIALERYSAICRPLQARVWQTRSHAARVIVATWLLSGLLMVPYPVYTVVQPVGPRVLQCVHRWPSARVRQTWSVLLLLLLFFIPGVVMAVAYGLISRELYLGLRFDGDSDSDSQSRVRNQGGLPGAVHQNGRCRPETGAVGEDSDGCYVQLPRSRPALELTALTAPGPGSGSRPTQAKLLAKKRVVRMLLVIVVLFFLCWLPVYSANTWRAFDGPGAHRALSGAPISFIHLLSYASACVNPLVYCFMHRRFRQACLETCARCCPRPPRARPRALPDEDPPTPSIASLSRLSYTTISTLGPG
Assay: Competitive ligand binding against [^177Lu]Lu-DOTA-CP04 in A431-CCK-2R cells
Conditions: modified peptides based on Peptide C (Table 4); read-out: IC50
Square brackets hold non-standard residues; d marks the D form. Peptide text beside a SMILES is read from it. Phe(4-CN) = N#Cc1ccc(C[C@H](N)C(=O)O)cc1; Phe(4-NH2) = Nc1ccc(C[C@H](N)C(=O)O)cc1; NMeNle = CCCC[C@H](NC)C(=O)O; Sar = CNCC(=O)O
readout: IC50 (nM)
Just the number please, in nM, no unit attached.

[[record]]
compound = "CCCC[C@@H](C(=O)N[C@@H](CC(=O)O)C(=O)N[C@@H](Cc1ccc(C#N)cc1)C(N)=O)N(C)C(=O)[C@H](Cc1c[nH]c2ccccc12)NC(=O)CN(C)C(=O)[C@H](Cc1ccc(O)cc1)NC(=O)[C@H](C)NC(=O)[C@@H](CCC(=O)O)NC(=O)[C@@H](CCC(=O)O)NC(=O)[C@@H](CCC(=O)O)NC(=O)[C@@H](C)NC(=O)[C@@H](CCC(=O)O)NC(=O)[C@H](N)CCC(=O)O [Q] (H-[dE][dE][dA][dE][dE][dE]AY[Sar]W[NMeNle]D[Phe(4-CN)]-NH2; N-terminus assumed)"
result_units = "nM"
reading = 1.57


Consider now this further compound.
Prompt line: What measured IC50 is associated with CCCC[C@@H](C(=O)N[C@@H](CC(=O)O)C(=O)N[C@@H](Cc1ccc(N)cc1)C(N)=O)N(C)C(=O)[C@H](Cc1c[nH]c2ccccc12)NC(=O)CN(C)C(=O)[C@H](Cc1ccc(O)cc1)NC(=O)[C@H](C)NC(=O)[C@@H](CCC(=O)O)NC(=O)[C@@H](CCC(=O)O)NC(=O)[C@@H](CCC(=O)O)NC(=O)[C@@H](C)NC(=O)[C@@H](CCC(=O)O)NC(=O)[C@H](N)CCC(=O)O [M] (H-[dE][dE][dA][dE][dE][dE]AY[Sar]W[NMeNle]D[Phe(4-NH2)]-NH2; N-terminus assumed) on human full-length CCK-2 receptor (Homo sapiens, UniProt P32239)?
Response line: 0.741
